- TEST_SETTINGS: human;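 note: value is a count of indexed literature references citing a benign tumour confirmed by histopathology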
Below: a set of entries, each annotated with reported Hepatotoxicity (benign tumour).

COMPOUND	Hepatotoxicity (benign tumour)
O=C(O)CCCCCCNC1c2ccccc2CCc2ccccc21	0
COc1ccc(/C=C/C(=O)Nc2ccccc2C(=O)O)cc1OC	0
C[C@]12C=CC(=O)C=C1CC[C@@H]1[C@@H]2[C@@H](O)C[C@@]2(C)[C@H]1CC[C@]2(O)C(=O)CO	1
CCOc1cc(CC(=O)N[C@@H](CC(C)C)c2ccccc2N2CCCCC2)ccc1C(=O)O [REPAGLINIDE]	0
CCCc1nn(C)c2c(=O)[nH]c(-c3cc(S(=O)(=O)N4CCN(C)CC4)ccc3OCC)nc12	0
CCN(CC)CCN1C(=O)CN=C(c2ccccc2F)c2cc(Cl)ccc21	0
CO[C@H]1[C@@H](O)[C@H](N)[C@@H](O[C@H]2O[C@H]([C@H](C)N)CC[C@H]2N)[C@H](O)[C@@H]1N(C)C(=O)CN	0
Cc1cccc(N2CC(CO)OC2=O)c1 (stereo unspecified)	0
CNc1nc(N(C)C)nc(N(C)C)n1	0
Cc1oncc1C(=O)Nc1ccc(C(F)(F)F)cc1 [LEFLUNOMIDE]	0
CN1CCN2c3ncccc3Cc3ccccc3C2C1 (stereo unspecified)	0
C#C[C@]1(O)CC[C@H]2[C@@H]3CCC4=CC(=O)CCC4=C3C=C[C@@]21CC	0
COc1ccc([C@@H]2Sc3cc(Cl)ccc3N(CCN(C)C)C(=O)[C@@H]2OC(C)=O)cc1	0
CC(=O)OCC1=C(C(=O)O)N2C(=O)[C@@H](NC(=O)CC#N)[C@H]2SC1	0
CO[C@@H]1[C@@H](N)[C@@H](O[C@H]2[C@H](Oc3cccc4c(O)c5c(=O)oc6ccc(C)c7c(=O)oc(c34)c5c67)O[C@H](C)[C@H](O)[C@]2(C)O)O[C@H](C)[C@@H]1O	0
NNc1nncc2ccccc12 [HYDRALAZINE]	0
CCCC(C)(COC(N)=O)COC(N)=O [MEPROBAMATE]	0
NCCS	0
N=C(N)c1ccc(/C=C/c2ccc(C(=N)N)cc2O)cc1 [HYDROXYSTILBAMIDINE]	0
CCOc1ccc(NC(C)=O)cc1	0
CC1(C)S[C@@H]2[C@H](NC(=O)[C@H](N)c3ccccc3)C(=O)N2[C@H]1C(=O)O	0
CN1CCN(C2=Nc3cc(F)ccc3Cc3ccccc32)CC1	0
N[C@H](C(=O)O)[C@@H]1CC(Cl)=NO1	0
COc1cc(C(=O)NCc2ccc(OCCN(C)C)cc2)cc(OC)c1OC [TRIMETHOBENZAMIDE]	0
CC(=O)OCC1=C(C(=O)O)N2C(=O)[C@@H](NC(=O)Cc3cccs3)[C@H]2SC1	0
CN(C)CCCN1c2ccccc2Sc2ccccc21	0
CCn1cc(C(=O)O)c(=O)c2cc(F)c(N3CCNCC3)cc21	0
N=C(N)NC(=O)c1nc(Cl)c(N)nc1N [AMILORIDE]	0
CC(C)CCOc1ccc(NC(=S)Nc2ccc(OCCC(C)C)cc2)cc1 [TIOCARLIDE]	0
CN[C@@H]1[C@H](O[C@H]2[C@H](O[C@H]3[C@H](O)[C@@H](O)[C@H](NC(=N)N)[C@@H](O)[C@@H]3NC(=N)N)O[C@@H](C)[C@]2(O)CO)O[C@@H](CO)[C@H](O)[C@H]1O [DIHYDROSTREPTOMYCIN]	0
OCC(Br)(Br)Br	0
COc1nc(C)ccc1CN1CC1C#N (stereo unspecified) [CIAMEXON]	0
CC(C)Cc1ccc(C(C)C(=O)O)cc1 (stereo unspecified)	0
C#CCN(C)[C@H](C)Cc1ccccc1	0
CCCCC(C)(C)[C@H](O)/C=C/[C@H]1[C@H](C)CC(=O)[C@@H]1C/C=C\CCCC(=O)O	0
CCN(CC)CC[n+]1ccc2c(C)c3[nH]c4ccc(O)cc4c3c(C)c2c1.[Cl-] [DATELLIPTIUM CHLORIDE]	0

Reference source for all entries: ChEMBL document CHEMBL3137667
